Where do these numbers come from? They come from paper PMC5048394.

Test system: PLC biosensor
Experiment: microbe, parasite or virus in culture
Assay type: cell-based, E. coli BL21
Details: Escherichia coli, BL21, read-out: Signal range (max/min), substrate screening, PLC biosensor, E. coli BL21
measured quantity: maximal fold induction

| compound | measured quantity | experimental value |
| --- | --- | --- |
| COc1cc(/C=C/C(=O)O)ccc1O [compound 1, trans-Ferulic acid] | maximal fold induction | 26.2 |
| COc1ccc(C=CC(=O)O)cc1O [compound 5, 3-Hydroxy-4-methoxycinnamic acid] | maximal fold induction | 33.5 |
| COc1cc(CCC(=O)O)ccc1O [compound 12] | maximal fold induction | 3.3 |
| COc1ccc(C=CC(=O)O)cc1OC [compound 8, 3,4-Dimethoxycinnamic acid] | maximal fold induction | 11.4 |
| Nc1ccc(C=CC(=O)O)cc1 [compound 3, 3-(4-Aminophenyl)-2-propenoic acid] | maximal fold induction | 28.1 |
| COc1cc(C=CC(=O)O)cc(OC)c1OC [compound 11, 3,4,5-Trimethoxycinnamic acid] | maximal fold induction | 6.7 |
| COc1cc(C=CC(=O)O)cc(O)c1O [compound 6, 3,4-Dihydroxy-5-methoxycinnamic acid] | maximal fold induction | 14.8 |
| O=C(O)C=Cc1ccc(O)cc1 [compound 2, p-Coumaric acid] | maximal fold induction | 25 |
